System: guinea pig eosinophils
test.summary: Inhibitory action on eosinophils (release of active oxygen from guinea pig eosinophils)
Type: cell-based
run.conditions: Cavia porcellus, Eosinophil, 5 min, PAF, luminol chemiluminescence for 5 minutes
Where a name gives a salt, the structure may show the parent alone.
measured.attribute: log10 of IC50 (log10 of the value in µM)
A difference of one corresponds to tenfold IC50; all values are log10 with IC50 in µM.

Recorded log10 of IC50, per entry:
molecule	log10 of IC50
CCOC(=O)CCCC(=O)C(=O)C(Cc1cccc(F)c1)NC(=O)Cn1c(-c2ccccc2)ncc(N)c1=O (stereo not shown)	1.79
Nc1cnc(-c2ccccc2)n(CC(=O)NC(Cc2ccccc2)C(=O)C(=O)CCCc2ccccc2)c1=O (stereo not shown)	0.75
Nc1cnc(-c2ccccc2)n(CC(=O)NC(Cc2ccccc2)C(=O)C(=O)CCCn2ccccc2=O)c1=O (stereo not shown) [Compound 73, hydrochloride]	0.48
Nc1cnc(-c2ccccc2)n(CC(=O)NC(Cc2ccccc2)C(=O)C(=O)CCCN2CCOCC2)c1=O (stereo not shown)	0.41
CCCCC(=O)C(=O)C(Cc1ccccc1)NC(=O)Cn1c(-c2ccccc2)ncc(N)c1=O (stereo not shown)	1.26

**Query** Can you look up log10 of IC50 on guinea pig eosinophils for CN1CCN(C(=O)CCCC(=O)C(=O)C(Cc2cccc(F)c2)NC(=O)Cn2c(-c3ccccc3)ncc(N)c2=O)CC1 (stereo not shown) ?
**Result** 0.40

**Query** # iterate: CC(=O)C(=O)C(Cc1cccc(F)c1)NC(=O)Cn1c(-c2ccccc2)ncc(N)c1=O (stereo not shown)
**Result** 1.41

----------
assay.system: rat chymase (Rattus norvegicus, UniProt P09650)
Construct: 50 g rat tongue was finely divided by scissors and a scalpel; from tissue; host or cells: rat tongue
Sequence (P09650 21-260): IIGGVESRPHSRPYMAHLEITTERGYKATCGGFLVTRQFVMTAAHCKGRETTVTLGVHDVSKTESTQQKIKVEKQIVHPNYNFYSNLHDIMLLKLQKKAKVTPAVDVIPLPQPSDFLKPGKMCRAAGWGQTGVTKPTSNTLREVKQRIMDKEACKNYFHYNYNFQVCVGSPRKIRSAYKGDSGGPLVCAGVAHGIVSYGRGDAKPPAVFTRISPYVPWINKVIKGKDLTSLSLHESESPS
test.summary: Inhibitory activity on rat chymase (synthetic substrate)
Type: biochemical
run.conditions: substrate succinyl leucyl leucyl valyl tyrosyl methylcoumarylamide; pH 8.0, 37° C., 15 min; read-out: Rat Chymase (IC50: nM), 50% inhibitory concentration
Mark Criterion met only for IC50 values smaller than 200 nM; exact matches and larger values are Criterion not met.

# example entries with known answers
compound	assigned.class
CN1CCN(C(=O)CCCC(=O)C(=O)C(Cc2cccc(F)c2)NC(=O)Cn2c(-c3ccccc3)ncc(N)c2=O)CC1 (centres unmarked)	Criterion met
Nc1cnc(-c2ccccc2)n(CC(=O)NC(Cc2ccccc2)C(=O)C(=O)CCCOc2ccccn2)c1=O (centres unmarked)	Criterion not met
CC(C)(C)OC(=O)Nc1cnc(-c2ccccc2)n(CC(=O)NC(Cc2ccccc2)C(=O)C(=O)CCCn2ccccc2=O)c1=O (centres unmarked)	Criterion not met

**Query** Decide: IC50 of O=C(Cn1c(-c2ccccc2)ncc(NC(=O)OCc2ccncc2)c1=O)NC(Cc1ccccc1)C(=O)C(=O)CCCOc1ccccn1 (centres unmarked) strictly below 200 nM?
**Result** Criterion met

**Query** # iterate: Nc1cnc(-c2ccccc2)n(CC(=O)NC(Cc2ccccc2)C(=O)C(=O)CCCc2ccccc2)c1=O (centres unmarked)
**Result** Criterion met

**Query** # iterate: CC(C)(C)OC(=O)Nc1cnc(-c2ccccc2)n(CC(=O)NC(Cc2ccccc2)C(=O)C(=O)CCCOc2ccccn2)c1=O (centres unmarked)
**Result** Criterion not met

**Query** # iterate: CC(=O)C(=O)C(Cc1cccc(C)c1)NC(=O)Cn1c(-c2ccccc2)ncc(N)c1=O (centres unmarked)
**Result** Criterion not met

**Query** # iterate: CC(=O)C(=O)C(Cc1cccc(F)c1)NC(=O)Cn1c(-c2ccccc2)ncc(N)c1=O (centres unmarked)
**Result** Criterion met

**Query** # iterate: O=C(Cn1c(-c2ccccc2)ncc(NC(=O)C2CCOC2)c1=O)NC(Cc1ccccc1)C(=O)C(=O)CCCc1ccccc1 (centres unmarked)
**Result** Criterion met
